assay-info: Drug repurposing screens with cells derived from glioblastoma tumor samples (AID 1345199); further: on the % scale 0 is the no-effect control and ±100 the full control effect
condition-notes: GBM patient neurospheres viability, ATP luminescence, 48 h; at 46.1 µM (top of the series); tumour line C
Inconclusive results are not listed.

molecule: O=S(=O)(O)c1ccc2nc(-c3ccccc3)[nH]c2c1
measurement-unit: %
activity, negative = cell killing: -23.9
--
molecule: C=CC[N+]1([C@H]2C[C@H]3[C@@H]4CC[C@H]5C[C@H](OC(C)=O)[C@@H](N6CCCCC6)C[C@]5(C)[C@H]4CC[C@]3(C)[C@H]2OC(=O)CC)CCCCC1
measurement-unit: %
activity, negative = cell killing: -14.4
--
molecule: CC(=O)[C@@]1(O)CC[C@H]2[C@@H]3C[C@H](C)C4=CC(=O)CC[C@]4(C)[C@H]3CC[C@@]21C
measurement-unit: %
activity, negative = cell killing: -11.3
--
molecule: N[C@@H](Cc1cc(I)c(O)c(I)c1)C(=O)O
measurement-unit: %
activity, negative = cell killing: 3.63
--
molecule: O=C(O)CCC(=O)OC[C@@H](NC(=O)C(Cl)Cl)[C@H](O)c1ccc([N+](=O)[O-])cc1
measurement-unit: %
activity, negative = cell killing: -13.1
--
molecule: CC1CN(c2cc3c(cc2F)c(=O)c(C(=O)O)cn3-c2ccc(F)cc2F)CCN1 (configuration not stated)
measurement-unit: %
activity, negative = cell killing: -10.7
--
molecule: CC(=O)N[C@@H](CCC(N)=O)C(=O)O
measurement-unit: %
activity, negative = cell killing: -4.41
--
molecule: CN1CCCN=C1/C=C/c1cccs1
measurement-unit: %
activity, negative = cell killing: 6.9
--
molecule: CN1[C@@H]2CC[C@H]1CC(NC(=O)n1c(=O)[nH]c3ccccc31)C2 (some centres not stated)
measurement-unit: %
activity, negative = cell killing: 9.49
--
molecule: CCOc1ccc(NS(=O)(=O)c2ccc(N)cc2)nn1
measurement-unit: %
activity, negative = cell killing: 9.99
--
molecule: CC(=O)OCC(=O)[C@@]1(O)CCC2C3CCC4=CC(=O)CC[C@]4(C)C3[C@@H](O)C[C@@]21C (some centres not stated)
measurement-unit: %
activity, negative = cell killing: 20.9
--
molecule: Cc1ccccc1N1CCN(CCc2nnc3n2CCCC3)CC1
measurement-unit: %
activity, negative = cell killing: 19.6
--
molecule: CC(COc1ccccc1)NN (configuration not stated)
measurement-unit: %
activity, negative = cell killing: 4.61
--
molecule: CN(C)C(=O)CNC(=O)Cc1ccccc1
measurement-unit: %
activity, negative = cell killing: 4.09
--
molecule: C1N2CN3CN1CN(C2)C3
measurement-unit: %
activity, negative = cell killing: 5.12
--
molecule: O=C(OCC1(COC(=O)c2cccnc2)CCCC(COC(=O)c2cccnc2)(COC(=O)c2cccnc2)C1O)c1cccnc1
measurement-unit: %
activity, negative = cell killing: 2.18
--
molecule: OCCCc1ccccc1
measurement-unit: %
activity, negative = cell killing: 2.38
--
molecule: CCC(C(=O)NC(=O)NC(C)=O)c1ccccc1 (configuration not stated)
measurement-unit: %
activity, negative = cell killing: -4.25
--
molecule: Cc1cccc(C)c1NC(=O)c1cc(S(N)(=O)=O)c(Cl)cc1O
measurement-unit: %
activity, negative = cell killing: -16.5
--
molecule: O=C(CCCCC(=O)Nc1c(I)cc(I)c(C(=O)O)c1I)Nc1c(I)cc(I)c(C(=O)O)c1I
measurement-unit: %
activity, negative = cell killing: 4.23
--
molecule: CC1(C)S[C@@H]2[C@H](NC(=O)C(c3ccccc3)S(=O)(=O)O)C(=O)N2[C@H]1C(=O)O (some centres not stated)
measurement-unit: %
activity, negative = cell killing: 4.53
--
molecule: CC(C)(C)C(O)/C=C/c1ccc2c(c1)OCO2 (configuration not stated)
measurement-unit: %
activity, negative = cell killing: 10.3
